The measured values listed here are drawn from the supplement of paper PMC7877785.

# test.summary: self-splicing fitness, log relative to wild type (ln ratio); higher = more splicing; Tetrahymena group I intron in knt gene, E. coli kanamycin selection, DiMSum; sequences stand for … in CUCUCU…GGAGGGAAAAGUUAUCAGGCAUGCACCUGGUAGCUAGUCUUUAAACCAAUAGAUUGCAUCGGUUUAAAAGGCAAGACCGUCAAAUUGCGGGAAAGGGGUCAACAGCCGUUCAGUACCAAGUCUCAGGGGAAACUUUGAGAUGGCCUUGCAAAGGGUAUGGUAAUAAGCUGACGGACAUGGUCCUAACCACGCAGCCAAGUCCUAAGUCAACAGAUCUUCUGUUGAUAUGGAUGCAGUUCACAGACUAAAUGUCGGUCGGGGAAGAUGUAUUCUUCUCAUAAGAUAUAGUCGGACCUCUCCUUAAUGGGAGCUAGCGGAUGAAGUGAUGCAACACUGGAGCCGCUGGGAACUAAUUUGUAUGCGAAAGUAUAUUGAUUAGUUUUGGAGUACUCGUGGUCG;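 also: selection with 25 µg/mL kanamycin versus none on LB agar overnight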
# condition.info: 37 °C
Classify on self-splicing fitness (ln) using band A (below -2), band B (-2 to below -0.7), band C (-0.7 or more)

Q) Kindly identify the class of `CCUUAGCAAUAUUACGCAAA` .
A) band A

Q) Form: Item = `AGAAAGCAAUAUUACGUCUA` ; Class = ?
A) band C

Q) Record `GGCAAGCAAUAUUACGAAUU` — which class?
A) band C

Q) Into which bin does this sequence go? `AUUUAGCAAUAUUACGUAGC`
A) band B

Q) Quick check: band for `CAAAAGCAAUAUUACGCCGU`
A) band B

Q) Which class holds `GUAUAGCAAUAUUACGCCUC` ?
A) band B

Q) Returns: class label. Input: `ACACAGCAAUAUUACGUCCC`
A) band C

Q) Category of `CGCGAGCAAUAUUACGUGCG` , please.
A) band A

Q) For this sequence, which bin applies? `GCCGAGCAAUAUUACGGCUU`
A) band A

Q) Which category fits this record: `GAUGAGCAAUAUUACGACUU`
A) band C

Q) Record `UUACAGCAAUAUUACGCAGU` — which class?
A) band A

Q) The entry to classify is `AGCUAGCAAUAUUACGUUGC` ; which class holds it?
A) band A

Q) Hi, small favor: classify `AAUCAGCAAUAUUACGUAAG` by its self-splicing fitness (ln) when you get a moment.
A) band C

Q) Which band does `AGGAAGCAAUAUUACGGGAG` fall in?
A) band A

Q) Which band does `ACAAAGCAAUAUUACGGGCU` fall in?
A) band B

---

# test.summary: self-splicing fitness, log relative to wild type (ln ratio); higher = more splicing; Tetrahymena group I intron in knt gene, E. coli kanamycin selection, DiMSum; sequences stand for … in CUCUCU…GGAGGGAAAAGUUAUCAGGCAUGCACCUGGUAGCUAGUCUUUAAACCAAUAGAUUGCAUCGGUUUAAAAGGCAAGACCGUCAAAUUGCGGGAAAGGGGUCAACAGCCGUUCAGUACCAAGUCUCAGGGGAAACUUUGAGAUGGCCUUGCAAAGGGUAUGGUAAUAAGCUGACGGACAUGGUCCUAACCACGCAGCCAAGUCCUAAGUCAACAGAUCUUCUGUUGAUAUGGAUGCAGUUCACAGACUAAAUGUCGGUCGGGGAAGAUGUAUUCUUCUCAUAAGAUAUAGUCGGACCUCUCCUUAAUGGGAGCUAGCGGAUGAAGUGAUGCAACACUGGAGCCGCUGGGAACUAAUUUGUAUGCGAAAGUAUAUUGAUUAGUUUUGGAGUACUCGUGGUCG
# condition.info: 30 °C
Kindly state self-splicing fitness (ln) for each of the entries shown.
Answer field: number only, no words.

Q) I'd like to know its self-splicing fitness (ln). The sequence in question is `UCGUAGCAAUAUUACGUAUG`
A) -2.04

Q) # input sequence: `GUACAGCAAUAUUACGUGAC` ; wanted: its self-splicing fitness (ln)
A) -2.8

Q) So what does the record say about self-splicing fitness (ln) for `UACUAGCAAUAUUACGAAUC` ?
A) -2.81

Q) Using the record for `CGCCAGCAAUAUUACGCGUC` , report its self-splicing fitness (ln).
A) -3.41

Q) Look up self-splicing fitness (ln): `GGGGAGCAAUAUUACGUACA`
A) -1.75

Q) Quick one: self-splicing fitness (ln) of `AAUGAGCAAUAUUACGCGGC` ?
A) -2.15

Q) Which self-splicing fitness (ln) is reported for this sequence? `CUGGAGCAAUAUUACGGGUA`
A) -2.59

Q) What value of self-splicing fitness (ln) has been recorded for this entry: `ACCAAGCAAUAUUACGUGCC`
A) -0.735

Q) Bench note: what self-splicing fitness (ln) did `AAGUAGCAAUAUUACGAUCA` show?
A) -0.93

Q) Consider the sequence `CCAUAGCAAUAUUACGGGAG` and give its measured self-splicing fitness (ln).
A) -2.96

Q) What value of self-splicing fitness (ln) has been recorded for this entry: `UGUCAGCAAUAUUACGGAAU`
A) -2.63

Q) Entry `GAGAAGCAAUAUUACGAAGG` : reported self-splicing fitness (ln) = ?
A) -2.97

Q) Fill in the blank: the reported self-splicing fitness (ln) of `AUCAAGCAAUAUUACGGGAU` is ____.
A) -2.33

Q) For the sequence shown here, `UGAAAGCAAUAUUACGAGUU` , give the reported self-splicing fitness (ln).
A) -3.31

Q) Which self-splicing fitness (ln) is listed for `AUCAAGCAAUAUUACGCAUA` ?
A) -1.94

Q) What value of measured self-splicing fitness (ln) is listed for `UCCGAGCAAUAUUACGAACA` ?
A) -3.11

Q) Can you share its self-splicing fitness (ln)? I mean this sequence: `UUGGAGCAAUAUUACGGCGA`
A) -1.32

Q) Item under review: `UGCCAGCAAUAUUACGCCCG` . Reported self-splicing fitness (ln)?
A) -0.317

Q) Dear colleague, I am looking for the recorded self-splicing fitness (ln) of the following sequence: `GAACAGCAAUAUUACGAUUU`
A) -0.342

Q) Need self-splicing fitness (ln) of `AAAAAGCAAUAUUACGUUGA` , thanks.
A) -2.63

Q) Reported self-splicing fitness (ln), sequence `UACUAGCAAUAUUACGGUGU` : ____
A) -3.74

Q) What does the data say about its self-splicing fitness (ln)? Entry: `CGUGAGCAAUAUUACGAUGA`
A) -3.64

Q) Recorded self-splicing fitness (ln) for `CCGGAGCAAUAUUACGUCCG` , please?
A) -3.03

Q) Item `CAAGAGCAAUAUUACGGCGG` has what recorded self-splicing fitness (ln)?
A) -0.86

Q) Looking for the measured self-splicing fitness (ln) of `UUUAAGCAAUAUUACGUACU` , can you help?
A) -1.14

Q) Reported self-splicing fitness (ln) for `ACGGAGCAAUAUUACGACUA` : what is it?
A) -2.73

Q) Item `UAUGAGCAAUAUUACGGAUC` has what recorded self-splicing fitness (ln)?
A) -3.84

Q) What value of self-splicing fitness (ln) has been reported for the following sequence? `UGACAGCAAUAUUACGCACC`
A) -1.38

Q) // query self-splicing fitness (ln) value for entry `UCACAGCAAUAUUACGACCA`
A) -1.89

Q) // self-splicing fitness (ln) lookup, key: `CGCGAGCAAUAUUACGGAUU`
A) -3.12

Q) Fill in: self-splicing fitness (ln) of `CAGCAGCAAUAUUACGGAUG` is ___
A) -2.06

Q) Look up self-splicing fitness (ln): `AGACAGCAAUAUUACGGUUG`
A) -1.85

Q) self-splicing fitness (ln) lookup needed for `UGAAAGCAAUAUUACGCUUC` , thanks.
A) -2.32

Q) self-splicing fitness (ln) for `CCUGAGCAAUAUUACGUGAG` ?
A) -3.61
